This collection of values is drawn from PubChem BioAssay AID1963438.

This section presents compounds with their documented IC50 values.
Test system: NCI-H510 multicellular tumor spheroid growth, % test/control
Assay: Anticancer human tumor NCI-H510 cell line growth inhibition [Asc];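 also: spheroids exposed to agents for 7 days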
Conditions: curve of first compound; second compound 0.0949 µM
observation_type: IC50

compound: C#Cc1c(F)ccc2cc(O)cc(-c3ncc4c(N5CC6CCC(C5)N6)nc(OCC56CCCN5CC(F)C6)nc4c3F)c12 (stereo not drawn) + CCN1C(C(=O)NC23CCC(C(=O)O)(CC2)CC3)C(c2cccc(Cl)c2F)C2(C(=O)Nc3cc(Cl)ccc32)C12CCCCC2
result: > 10 µM
--
compound: O=C(c1ccc(F)c(F)c1Nc1ccc(I)cc1F)N1CC(O)([C@@H]2CCCCN2)C1 + CCN1C(C(=O)NC23CCC(C(=O)O)(CC2)CC3)C(c2cccc(Cl)c2F)C2(C(=O)Nc3cc(Cl)ccc32)C12CCCCC2
result: > 1 µM
--
compound: C=CC(=O)N1CCN(c2nc(=O)n(-c3c(C)ccnc3C(C)C)c3nc(-c4c(O)cccc4F)c(F)cc23)C(C)C1 (stereo not drawn) + CCN1C(C(=O)NC23CCC(C(=O)O)(CC2)CC3)C(c2cccc(Cl)c2F)C2(C(=O)Nc3cc(Cl)ccc32)C12CCCCC2
result: > 10 µM
